Provenance of the data: patent US20220177476A1

Assay notes: Approximate solubility of Form I by stepwise dilution of a suspension
Assay type: physicochemical
Cond: organic solvent or mixture, thermodynamic from solid; tetrahydrofuran, THF; read-out: Solubility [S, mg/mL]
Assay readout: solubility

[ask] Tell me the measured solubility of CC#CC(=O)N1CCC[C@H]1c1nc(-c2ccc(C(=O)Nc3ccccn3)cc2)c2c(N)nccn12 [Form I] , please.
[reply] ~5 mg/mL

###

Assay notes: Approximate solubility of Form I by stepwise dilution of a suspension
Assay type: physicochemical
Cond: 2-propanol, organic solvent or mixture, thermodynamic from solid; read-out: Solubility [S, mg/mL]
Assay readout: solubility

[ask] Recorded solubility of CC#CC(=O)N1CCC[C@H]1c1nc(-c2ccc(C(=O)Nc3ccccn3)cc2)c2c(N)nccn12 [Form I] , please.
[reply] < 1 mg/mL

###

Assay notes: Solubility of Form I by HPLC in solvents and water-solvent mixtures
Type: physicochemical
Cond: organic solvent or mixture, thermodynamic from solid; 1-propanol, 5° C.; read-out: Solubility (S, mg/mL)
Assay readout: solubility (mg/mL)
Give the number; mg/mL is assumed, so skip it.

[ask] I'd like to know its solubility. The compound in question is CC#CC(=O)N1CCC[C@H]1c1nc(-c2ccc(C(=O)Nc3ccccn3)cc2)c2c(N)nccn12 [Form I]
[reply] 3.4

###

Assay notes: pKa by ultraviolet (UV) spectrometric titration
Format: physicochemical
Cond: aqueous solution, pH 2, fast-UV triple titration, pH 2-12, 31-19 μM, aqueous; read-out: pKa, average value (third)
Experimental: The pKa values for Formula (1) free base were determined and used to create the speciation plot shown in FIG. 47 to illustrate the species present as the Formula (1) passes through the gastrointestinal tract. The sample pKa values were determined using an ultraviolet (UV) spectrometric technique. […] Three pKa values, with average values of ˜3.6, ˜5.8 and ˜12.0, were determined. […]
Assay readout: pKa

[ask] Name the recorded pKa for `CC#CC(=O)N1CCC[C@H]1c1nc(-c2ccc(C(=O)Nc3ccccn3)cc2)c2c(N)nccn12` .
[reply] ~12

###

Assay notes: Approximate solubility of Form I by stepwise dilution of a suspension
Assay type: physicochemical
Cond: methanol:water 9:1, organic solvent or mixture, thermodynamic from solid; read-out: Solubility [S, mg/mL]
Assay readout: solubility

[ask] Item under review: CC#CC(=O)N1CCC[C@H]1c1nc(-c2ccc(C(=O)Nc3ccccn3)cc2)c2c(N)nccn12 [Form I] . Reported solubility?
[reply] ~15 mg/mL

###

Assay notes: Approximate solubility of Form I by stepwise dilution of a suspension
Assay type: physicochemical
Cond: organic solvent or mixture, thermodynamic from solid; dimethyl sulfoxide, DMSO; read-out: Solubility [S, mg/mL]
Assay readout: solubility

[ask] I am curious: what solubility value has been reported for CC#CC(=O)N1CCC[C@H]1c1nc(-c2ccc(C(=O)Nc3ccccn3)cc2)c2c(N)nccn12 [Form I] ?
[reply] 39 to 49 mg/mL

###

Assay notes: Solubility of Form I by HPLC in solvents and water-solvent mixtures
Type: physicochemical
Cond: organic solvent or mixture, thermodynamic from solid; ethanol-water 9:1, 25° C.; read-out: Solubility (S, mg/mL)
Procedure: The solubility of recrystallized Formula (1) Form I was tested in various water-solvent mixtures and non-aqueous solvents.
Assay readout: solubility
Note to self: number, then unit, no commentary.

[ask] What value of solubility has been recorded for this entry: CC#CC(=O)N1CCC[C@H]1c1nc(-c2ccc(C(=O)Nc3ccccn3)cc2)c2c(N)nccn12 [Form I]
[reply] 23.7 mg/mL
